Target: T1, human CD33 extracellular domain (human, UniProt P20138 18-259)
T1 construct: soluble monomeric ECD; also called human CD33 ECD; hCD33
Experiment: SPR, Fab captured, 37C;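 also: surface plasmon resonance with Fabs captured on anti-Fab surface, soluble monomeric CD33 as analyte at several concentrations, double-referenced 1:1 model fit, KD as koff/kon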
pKd: −log10 of the molar value.
pKd listing for selected binders.

{"columns": ["BINDER", "pKd"],
 "data": [
  ["ADI-10161 Fab (Fab, V domains shown, Fab fragment; also called Ab16) VH: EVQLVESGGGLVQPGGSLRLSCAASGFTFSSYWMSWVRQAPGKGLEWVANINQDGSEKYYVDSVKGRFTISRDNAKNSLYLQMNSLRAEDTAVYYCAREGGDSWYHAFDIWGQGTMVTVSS VL: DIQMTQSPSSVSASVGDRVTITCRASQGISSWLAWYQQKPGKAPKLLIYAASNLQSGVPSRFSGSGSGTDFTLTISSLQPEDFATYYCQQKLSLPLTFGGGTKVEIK", 7.69],
  ["ADI-11828 Fab (Fab, V domains shown, Fab fragment; also called Ab27) VH: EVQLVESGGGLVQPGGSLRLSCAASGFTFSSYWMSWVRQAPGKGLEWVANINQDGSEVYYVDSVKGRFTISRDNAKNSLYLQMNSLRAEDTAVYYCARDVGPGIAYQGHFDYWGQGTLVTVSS VL: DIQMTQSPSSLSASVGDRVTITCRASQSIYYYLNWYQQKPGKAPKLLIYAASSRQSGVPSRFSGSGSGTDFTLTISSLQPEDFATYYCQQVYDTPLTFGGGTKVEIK", 8.57],
  ["ADI-10159 Fab (Fab, V domains shown, Fab fragment; also called Ab1; G59) VH: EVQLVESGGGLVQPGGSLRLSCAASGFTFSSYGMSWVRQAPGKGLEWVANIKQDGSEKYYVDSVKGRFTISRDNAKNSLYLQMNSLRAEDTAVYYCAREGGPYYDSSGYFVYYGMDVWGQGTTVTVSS VL: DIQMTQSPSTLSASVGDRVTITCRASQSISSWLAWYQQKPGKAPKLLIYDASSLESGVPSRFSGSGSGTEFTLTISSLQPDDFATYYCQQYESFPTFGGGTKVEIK", 8.34]
]}

The measured values listed here are drawn from patent US20220380459A1.
